Data credit: patent US20090118167A1

Biological target: T1, human VPAC2 receptor (human, UniProt P41587 24-438)
T1 sequence (looked up): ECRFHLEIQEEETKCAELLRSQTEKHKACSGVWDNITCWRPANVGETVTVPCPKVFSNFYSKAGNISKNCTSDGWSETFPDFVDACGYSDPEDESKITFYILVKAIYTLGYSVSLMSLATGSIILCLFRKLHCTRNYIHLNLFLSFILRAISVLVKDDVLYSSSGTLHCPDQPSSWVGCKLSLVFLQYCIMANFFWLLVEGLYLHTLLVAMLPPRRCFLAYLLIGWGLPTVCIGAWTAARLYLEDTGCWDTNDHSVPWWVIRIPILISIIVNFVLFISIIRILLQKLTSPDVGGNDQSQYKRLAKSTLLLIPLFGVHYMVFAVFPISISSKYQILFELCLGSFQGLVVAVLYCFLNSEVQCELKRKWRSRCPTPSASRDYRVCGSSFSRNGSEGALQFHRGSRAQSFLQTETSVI
Assay: cell-based or functional assay
Square brackets hold non-standard residues; d marks the D form. Ends that are not written are not given here. Nle = CCCC[C@H](N)C(=O)O; Orn = NCCC[C@H](N)C(=O)O; Aib = CC(C)(N)C(=O)O
Parameter: EC50 for cAMP generation, Alpha screen
Note: a bare number is incomplete; add the unit.

// known answers, use as guide
INSERT INTO measurements (binder, data_value) VALUES
  ('HSDAVFTENYTKLR[Aib]Q[Nle]AAKKYLNDLKKGGPSSGAPPPC (also: further groups not given here) [P279 (cyclic PEGylated VPAC2 receptor peptide agonist)]', '5.93 nM'),
  ('HSDAVFTENYTKL[Aib]KQ[Nle]AAKKYLNDLKQKGGPSSGAPPPC (also: further groups not given here) [P274 (cyclic PEGylated VPAC2 receptor peptide agonist)]', '76.1 nM'),
  ('HSDAVFTENYT[Orn]LR[Aib]Q[Nle]AA[Orn]KYLNDL[Orn][Orn]GGPSSGAPPPC (also: cyclic by a side-chain bridge (lactam or disulfide), places not given here, PEGylated, site not given here) [P463 (cyclic PEGylated VPAC2 receptor peptide agonist)]', '365 nM'),
  ('HSDAVFTENYTKLRKQ[Nle]AAKKYLNDLKQGGPSSGAPPPC (ends and bridges not checked; also: further groups not given here) [P239 (cyclic PEGylated VPAC2 receptor peptide agonist)]', '4.42 nM');

Proceed to the following item.
So what's the measured EC50 for cAMP generation, Alpha screen for this one? HSDAVFTENYTKL[Aib]KQ[Nle]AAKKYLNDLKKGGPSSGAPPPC (ends and bridges not checked; also: further groups not given here) [P257 (cyclic PEGylated VPAC2 receptor peptide agonist)] 42.2 nM
